remaining at 72 h listing for selected compounds.
Test: physchem
Assay type: physicochemical
Conditions: tris buffer, hydrogen peroxide, pH 7, Stability (% Remaining) when reacted with aqueous hydrogen peroxide
measured quantity: remaining at 72 h (%)

* O=C1O[C@H]([C@@H](O)CO)C(O)=C1OP(=O)(O)OP(=O)(O)OP(=O)(O)O [ASTP, L-ascorbate 2-triphosphate] | 87.6
* O=C1O[C@H]([C@@H](O)CO)C(O)=C1OP(=O)(O)O [ASMP, L-Ascorbate 2-phosphate] | 77.7
* O=C1O[C@H]([C@@H](O)CO)C(O)=C1O | 0

====

Assay: in vitro
Type: in vitro ADME, potato
Settings: potato, ph 5.0 acetate buffer, pH 5
metabolised at 2 h listing for selected molecules.
measured quantity: metabolised at 2 h (%)

• O=C1O[C@H]([C@@H](O)CO)C(O)=C1OP(=O)(O)OP(=O)(O)OP(=O)(O)O [ASTP, L-ascorbate 2-triphosphate] = 0
• O=C1O[C@H]([C@@H](O)CO)C(O)=C1OP(=O)(O)O [ASMP, L-Ascorbate 2-phosphate] = 60.5

Where these numbers come from: patent US4647672A
